Test system: SF-539 CNS
Experiment: NCI-60 one-dose screen, 48 h (100 = growth as untreated, 0 = no growth, -100 = all killed)
Settings: 10 µM unless noted
Experimental: Cells are grown in 96 well plates and exposed to the test compound for 48 hours. Compounds are tested at a single concentration, which is 10^-5 M for most compounds. The reported endpoint is percent growth (GI% or GIPRCNT), where numbers from 0 - 100% represent growth inhibition, and numbers from -100% - 0 represent cell death. For example, a value of 40 represents 60% growth inhibition. A value of 0 means no net growth occurred over the course of the experiment. […]
Compounds without any hit were thinned out: in the full panel of roughly 83,000, 20% have a hit.
Records here are stratified by growth; strata: range A: < 30%; range B: ≥ 30% and < 80%; range C: ≥ 80%

Smiles representation: C[C@]12CC[C@@H]3c4cc(OC(F)F)c(OS(N)(=O)=O)cc4CC[C@H]3[C@@H]1CC[C@@H]2OS(N)(=O)=O
Category label: range A
//
Smiles representation: O=C(Nc1nc2ccc(F)cc2s1)c1cccnc1Nc1ccc(Cl)cc1Cl
Category label: range B
//
Smiles representation: CCc1ccc2nc(NC(=O)Cc3csc(NC(=O)c4ccco4)n3)sc2c1
Category label: range B
//
Smiles representation: FC(F)(F)c1cc(Nc2ccc3c(OCCCN4CCOCC4)cccc3n2)ccc1Cl
Category label: range B
//
Smiles representation: BrCCCc1n(Cc2ccc3ccccc3c2)c2ccccc2[n+]1Cc1ccc2ccccc2c1
Category label: range A
//
Smiles representation: Cc1ccc2c(-c3cc(-c4ccccc4)nc(N)c3C#N)cc(=O)oc2c1
Category label: range C
//
Smiles representation: CN1CCN(c2ccc(-c3cnc4c(-c5csc6ccccc56)cnn4c3)cc2)CC1
Category label: range A
//
Smiles representation: O=c1c2cc(F)ccc2sc2c(N3CCCCC3)nc3ccccc3c12
Category label: range C
//
Smiles representation: COc1ccc(/C=N/Nc2cc(=O)[nH]c3ccc(Cl)cc23)cc1
Category label: range C

###

system: HCC-2998 colon; assay: NCI-60 one-dose screen, 48 h (100 = growth as untreated, 0 = no growth, -100 = all killed); settings: 10 µM unless noted
This is part of a sample that, as a whole, favours compounds with a hit. Of some 83,000 tested, about 20% had one in any assay.
I'd appreciate it if you marked entries Condition met when growth is lower than 40% and Condition not met when it is not.

Molecule: C#C[C@]1(O)CC[C@H]2[C@@H]3CC=C4c5sc(Nc6cc(F)ccc6F)nc5CC[C@]4(C)[C@H]3CC[C@@]21C
Category label: Condition met
--
Molecule: CC(=O)c1ccc(Nc2nc(C(C)=O)c(C)s2)cc1
Category label: Condition not met
--
Molecule: CC(=O)N1N=C(c2ccc(Nc3nc(Nc4ccc(F)cc4)nc(Nc4ccc(Cl)cc4)n3)cc2)CC1c1ccc(Cl)cc1 (stereo not given)
Category label: Condition not met
--
Molecule: O=C(Nc1ccc(Cl)cc1F)c1cc(Cl)ccc1O
Category label: Condition met
--
Molecule: COc1ccc(-c2cc3c4c(nc5ccccc5c4c2)CC(c2cc(OC)c(OC)c(OC)c2)O3)cc1 (stereo not given)
Category label: Condition not met

###

tested on: MALME-3M melanoma; assay: NCI-60 one-dose screen, 48 h; conditions: 10 µM unless noted
Compounds without any hit were thinned out: in the full panel of roughly 83,000, 20% have a hit. Activity calls are given as the source filed them. Rule for the calls: active = growth percent below 10; inactive = the rest.
Outcomes: active, inactive

Compound: CCOC(=O)CC1C(COC(=O)NC)OC(n2cnc3c(NC(=O)Nc4ccccc4)ncnc32)C1O[Si](C)(C)C(C)(C)C (stereo not given)
Category label: inactive

Compound: CN(C)CCS(=O)(=O)Nc1cc(-c2ccc3ncc(C#N)c(Nc4ccc(F)c(Cl)c4)c3c2)cnc1Cl
Category label: active

Compound: Cc1nc2ccccc2c(/C=C/c2ccccc2)c1C(=O)/C=C/c1ccc(C(F)(F)F)cc1
Category label: active

Compound: COc1cc2cc(Oc3ccc(NC(=O)Nc4ccc(Cl)c(C(F)(F)F)c4)cc3)c(C)nc2cc1OCCN1CCOCC1
Category label: inactive

Compound: OC(c1ccccc1)C(NC(Cc1ccccc1)c1ccccc1)c1ccccc1 (stereo not given)
Category label: inactive

###

tested on: U251 CNS; assay: NCI-60 one-dose screen, 48 h (100 = growth as untreated, 0 = no growth, -100 = all killed); details: 10 µM unless noted
The panel holds about 83,000 compounds, 20% with a hit somewhere; the sample as a whole holds those more often.
# label = fulfilled if growth >= 90% else not fulfilled

Compound: COc1ccccc1/C=C1\Oc2cc(OCCN3CCC(Cc4ccccc4)CC3)ccc2C1=O
Category label: not fulfilled
//
Compound: Cc1cc(O)c(C2=NN(c3ccc(S(N)(=O)=O)cc3)C(/C=C/c3ccccc3)C2)cc1Cl (stereo not given)
Category label: not fulfilled
//
Compound: S=C(c1cccs1)N1CCN(c2cccc(Cl)c2)CC1
Category label: fulfilled
//
Compound: CCCCCCN1C(=O)/C(=c2\sc3n(c2=O)C2C(NN=3)N(CC)C(=O)N2CC)c2ccccc21 (stereo not given)
Category label: not fulfilled
//
Compound: COc1ccc(C(=O)COC(=O)[C@H](C[Se][Se]C[C@H](NC(=O)c2ccc(Br)cc2F)C(=O)OCC(=O)c2ccc(OC)cc2)NC(=O)c2ccc(Br)cc2F)cc1
Category label: not fulfilled
//
Compound: CSc1nc2ccc(C)cc2cc1/C=N/O
Category label: not fulfilled
//
Compound: CN(C(=O)NCc1cccc(F)c1Cl)[C@H](COC(=O)Nc1cc2ccccc2cn1)CC(O)CO (stereo not given in full)
Category label: not fulfilled
//
Compound: Cc1cc2nc3ccc(N=Nc4ccc(N(C)C)cc4)cc3n(-c3ccccc3)c-2cc1=N
Category label: not fulfilled
//
Compound: COc1ccc(C(=O)/C=C/c2sc(Cl)nc2Cl)cc1
Category label: not fulfilled
//
Compound: C(=N/Nc1ncnc2nc[nH]c12)/c1ccccn1
Category label: not fulfilled
//
Compound: CN1CCN(c2ccc(-c3ccc4ncc(C#N)c(Nc5ccc(F)c(Cl)c5)c4c3)cn2)CC1
Category label: not fulfilled
//
Compound: CN1CCN(CC(=O)N2c3cccc4cccc(c34)N(C(=O)CN3CCN(C)CC3)C2c2cn(-c3ccccc3)nc2-c2cccc([N+](=O)[O-])c2)CC1
Category label: not fulfilled
//
Compound: Cc1ccc(-c2nc(SCC(=O)Nc3nc(-c4ccc(Cl)cc4)cs3)[nH]c(=O)c2C#N)cc1
Category label: fulfilled
//
Compound: COc1ccc(CNC(=O)C(=O)[C@H](Cc2ccccc2)NC(=O)c2[nH]c3ccccc3c(=O)c2C)cc1
Category label: fulfilled
//
Compound: C/C=C(\C)C(=O)N[C@H]1[C@@H](OC(C)=O)C[C@]2(C)C3CC[C@@]4(C)C(CC[C@@H]4C(C)N(C)C)C3CCC2[C@H]1O (stereo not given in full)
Category label: not fulfilled
//
Compound: COC(=O)[C@H](C)NC(=O)NC(=O)NC(=O)CI
Category label: fulfilled
//
Compound: OC(COc1ccccc1Cl)CN1CCN(c2cccc(Cl)c2)CC1 (stereo not given)
Category label: fulfilled
//
Compound: CN1C(=O)N(C)C2Nn3c(s/c(=C\c4ccccc4)c3=O)=NC21 (stereo not given)
Category label: fulfilled
//
Compound: O=C(Oc1cccc2ccccc12)Oc1cccc2ccccc12
Category label: fulfilled
//
Compound: CC(C)c1cc(C(C)C)c(S(=O)(=O)Oc2ccc(NC(=O)c3ccc(Cl)cc3)cc2)c(C(C)C)c1
Category label: not fulfilled
//
Compound: COc1nc2ccc(C)cc2cc1-c1nc2c(cnn2-c2ccc(Br)cc2)c(=O)[nH]1
Category label: not fulfilled
//
Compound: Cc1nc2nc(SCC(=O)O)[nH]c2c(=O)[nH]1
Category label: fulfilled
//
Compound: COc1ccc(-c2nn(C(=O)c3cc(OC)c(OC)c(OC)c3)c3cc(N)ccc23)cc1
Category label: not fulfilled
//
Compound: CNC(=O)c1cc(-n2ccc3cc(NC(=O)c4ccc(N5CCOCC5)c(C(F)(F)F)c4)ccc32)ccn1
Category label: not fulfilled
//
Compound: O=C(CCOCCNC(=O)COc1ccc2c(c1)OCC(c1ccc(F)cc1)C2=O)NCCCC(O)(P(=O)(O)O)P(=O)(O)O (stereo not given)
Category label: fulfilled
//
Compound: CC1CN(C2CCCCC2)C(=S)N(c2ccccc2)C1=O (stereo not given)
Category label: fulfilled
//
Compound: c1cc2nc(-c3cn[nH]c3)c3c(c2cc1-c1cn[nH]c1)C1CCC3C1 (stereo not given)
Category label: not fulfilled
//
Compound: O=c1[nH]c2c(ccc3cnccc32)c2c1CCC2
Category label: not fulfilled
//
Compound: c1ccc(Cc2nn3cc(-c4ccccc4)nc3s2)cc1
Category label: fulfilled
//
Compound: O=C(CCCCCCSc1nc(-c2ccccc2)cc(-c2ccccc2)n1)NO
Category label: not fulfilled
//
Compound: Cc1cc(=O)oc2cc(OC(=O)N3CCN(C)CC3)ccc12
Category label: fulfilled
//
Compound: COc1ccc(/C=C(\C#N)n2nnc3c(F)cccc32)cc1
Category label: not fulfilled
//
Compound: CCOC(=O)c1sc2ncc(-c3ccc(C)cc3)n2c1C
Category label: fulfilled
//
Compound: O=C(CSc1nc2ccccc2[nH]1)Nc1cccc(Cl)c1
Category label: fulfilled
//
Compound: O=C(/C=C/c1cccc2ccccc12)c1ccc(NC(=O)c2ccccc2CN2C(=O)c3ccccc3C2=O)cc1
Category label: not fulfilled
//
Compound: Cc1[nH]c(C(=O)Nc2ccc(C(=O)N3CCNCC3)cc2OC(C)C)c(Cl)c1Cl
Category label: not fulfilled
//
Compound: Clc1ccc(C(/C=C/c2sc(Cl)nc2Cl)=N/Nc2cc(Cl)cc(Cl)c2)cc1
Category label: fulfilled
//
Compound: O=CN1N=C(c2ccc(Nc3ccnc4cc(Cl)ccc34)cc2)CC1c1ccccc1 (stereo not given)
Category label: not fulfilled
